# measurementTarget: Transcriptional activator Myb (Homo sapiens)
# Sequence (P10242 whole entry): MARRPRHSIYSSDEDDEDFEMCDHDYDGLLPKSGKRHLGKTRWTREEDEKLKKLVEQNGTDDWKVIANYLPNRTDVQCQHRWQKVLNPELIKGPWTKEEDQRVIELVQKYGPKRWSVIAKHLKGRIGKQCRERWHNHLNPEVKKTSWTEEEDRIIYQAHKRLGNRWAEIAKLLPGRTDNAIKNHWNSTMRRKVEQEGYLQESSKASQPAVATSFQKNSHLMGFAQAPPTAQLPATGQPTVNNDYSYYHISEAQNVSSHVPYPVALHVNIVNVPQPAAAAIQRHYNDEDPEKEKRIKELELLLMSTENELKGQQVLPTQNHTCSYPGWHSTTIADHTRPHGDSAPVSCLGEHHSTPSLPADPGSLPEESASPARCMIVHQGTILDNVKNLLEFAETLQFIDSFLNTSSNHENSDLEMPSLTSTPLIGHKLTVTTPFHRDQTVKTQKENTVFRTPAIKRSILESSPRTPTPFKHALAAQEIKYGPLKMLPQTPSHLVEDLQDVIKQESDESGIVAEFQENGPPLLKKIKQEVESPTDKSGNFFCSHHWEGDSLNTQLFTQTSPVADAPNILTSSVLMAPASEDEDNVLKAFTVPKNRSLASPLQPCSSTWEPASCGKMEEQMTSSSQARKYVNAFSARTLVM
# assayText: Inhibition of c-Myb (unknown origin) expressed in HEK293T cells measured after 16 hrs by steady-glo luciferase reporter gene assay
pIC50: −log10 of the molar value.
Please note: met applies when pIC50 is 7 or greater, and not met applies otherwise.

INSERT INTO assay_data (compound, classlabel) VALUES
  ('N#CC1=C(N)Oc2c(ccc3ccccc23)C1c1ccc(Cl)c(F)c1 (stereo not given)', 'met'),
  ('COc1ccc(C2C(C#N)=C(N)Oc3c2ccc2ccccc32)cc1 (stereo not given)', 'not met'),
  ('COc1cc(C2C(C#N)=C(N)Oc3c2ccc2ccccc32)cc(OC)c1OC(C)C (stereo not given)', 'met'),
  ('COc1ccc(C2C(C#N)=C(N)Oc3c2ccc2ccccc32)cc1Br (stereo not given)', 'not met'),
  ('CSc1ccc(C2C(C#N)=C(N)Oc3c2ccc2ccccc32)cc1F (stereo not given)', 'not met'),
  ('CCOc1c(Br)cc(C2C(C#N)=C(N)Oc3c2ccc2ccccc32)cc1OC (stereo not given)', 'met');

Confirm if pIC50 reported for the compound C#CCOc1c(OC)cc(C2C(C#N)=C(N)Oc3c2ccc2ccccc32)cc1OC (stereo not given) is 7 or above.
met

Confirm if pIC50 reported for the compound CCOc1c(OC)cc(C2C(C#N)=C(N)Oc3c2ccc2ccccc32)cc1OC (stereo not given) is 7 or above.
met
